# target.entity: UniProt:P00533
# Sequence (P00533 whole entry): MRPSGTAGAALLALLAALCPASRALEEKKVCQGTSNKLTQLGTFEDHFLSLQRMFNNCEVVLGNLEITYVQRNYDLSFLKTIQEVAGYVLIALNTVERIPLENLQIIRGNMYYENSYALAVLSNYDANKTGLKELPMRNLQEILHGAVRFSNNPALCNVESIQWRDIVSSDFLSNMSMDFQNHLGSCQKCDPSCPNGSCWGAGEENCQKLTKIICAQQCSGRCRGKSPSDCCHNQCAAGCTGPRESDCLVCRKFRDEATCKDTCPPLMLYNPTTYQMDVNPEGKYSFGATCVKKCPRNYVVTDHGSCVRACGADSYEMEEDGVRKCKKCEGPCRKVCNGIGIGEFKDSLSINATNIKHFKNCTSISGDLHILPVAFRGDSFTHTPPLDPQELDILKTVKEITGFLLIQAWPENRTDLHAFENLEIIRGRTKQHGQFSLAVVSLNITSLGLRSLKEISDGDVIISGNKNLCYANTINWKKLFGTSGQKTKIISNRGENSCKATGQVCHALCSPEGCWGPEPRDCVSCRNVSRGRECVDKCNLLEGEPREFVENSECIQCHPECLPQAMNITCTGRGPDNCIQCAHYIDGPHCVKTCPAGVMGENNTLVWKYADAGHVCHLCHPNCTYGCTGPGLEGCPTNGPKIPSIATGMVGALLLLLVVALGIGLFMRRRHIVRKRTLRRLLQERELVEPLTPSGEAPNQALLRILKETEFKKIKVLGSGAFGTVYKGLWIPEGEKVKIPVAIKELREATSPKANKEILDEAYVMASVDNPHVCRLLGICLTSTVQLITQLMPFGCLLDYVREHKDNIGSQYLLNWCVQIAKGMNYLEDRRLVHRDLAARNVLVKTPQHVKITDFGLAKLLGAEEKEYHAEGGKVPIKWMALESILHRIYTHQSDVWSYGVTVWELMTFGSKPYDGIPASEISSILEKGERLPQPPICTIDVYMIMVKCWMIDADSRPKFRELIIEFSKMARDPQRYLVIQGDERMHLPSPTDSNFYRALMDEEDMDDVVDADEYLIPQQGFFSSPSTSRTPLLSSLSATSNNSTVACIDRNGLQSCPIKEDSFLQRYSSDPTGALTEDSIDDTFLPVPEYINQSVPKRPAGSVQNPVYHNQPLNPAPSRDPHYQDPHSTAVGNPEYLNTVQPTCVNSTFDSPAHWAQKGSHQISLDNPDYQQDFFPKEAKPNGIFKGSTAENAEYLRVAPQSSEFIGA
# test: Inhibit of phosphorylation of a tyrosine/glutamic acid copolymer by epidermal growth factor receptor prepared from human A431 carcinoma cell vesicles by immunoaffinity chromatography.
pIC50: −log10 of the molar value.
measure.name: pIC50

a = CN(C)CCCNc1cc2c(Nc3cccc(Br)c3)ncnc2cn1
b = CN(CCO)c1cc2c(Nc3cccc(Br)c3)ncnc2cn1
c = CN1CCN(c2cc3c(Nc4cccc(Br)c4)ncnc3cn2)CC1
d = Cc1cccc(Nc2ncnc3cnc(N)cc23)c1
Endpoint returns the given molecules ordered by ascending pIC50. When ranking, write the labels in the order the request describes.
c, d, a, b

1 = Brc1cccc(Nc2ncnc3cnc(NCCCN4CCOCC4)cc23)c1
2 = O=C(O)CCNc1cc2c(Nc3cccc(Br)c3)ncnc2cn1
Among 1 and 2 , whose measured pIC50 is the smaller figure? Could you answer with the label of the item you picked?
1
